# MEASUREMENT_DESCRIPTION: qHTS for Inhibitors of human tyrosyl-DNA phosphodiesterase 1 (TDP1): qHTS in cells in absence of CPT; note: nearly all actives have a fitted effect of over 55% in size
# RUN_PARAMETERS: DT40 Tdp1-/- hTDP1 cells, no CPT, ATP luminescence, 48 h
# Description: Human tyrosyl-DNA phosphodiesterase 1 (TDP1) is a novel repair gene, and we propose to use it as a new target for anticancer drug development. […] For the primary screen, Tdp1-/-;hTDP1 cells will be exposed to small molecules in the presence or absence of CPT, and their growth kinetics will be evaluated after 48 hours by measuring ATP activity. […] The hit compounds will then be evaluated in the presence or absence of CPT using Tdp1-/- cells. […]
In all, about 420,000 compounds went through this assay and about 64,000 (15%) were called active. Roughly 27% stayed inconclusive and do not appear here. Calls come from the whole dose curve; as a rule, active = well fitted inhibition curve with a large enough effect; inconclusive = small, poorly fitted or top-dose-only effect; inactive = flat fitted curve, though single readings scatter. Only a sample is shown.
Outcomes: active, inactive

[
  {
    "MOLECULE": "CCCN(C(=O)CSc1nnnn1C)c1c(N)n(Cc2ccccc2)c(=O)[nH]c1=O",
    "LABEL": "inactive"
  },
  {
    "MOLECULE": "COc1cccc2c1cc1c(=O)n(CC(=O)N3CCN(c4cccc(Cl)c4)CC3)nc(C)n12",
    "LABEL": "inactive"
  },
  {
    "MOLECULE": "COC(=O)c1ccc(CSc2nc3cc(Cl)ccc3o2)cc1",
    "LABEL": "inactive"
  },
  {
    "MOLECULE": "O=S(=O)(c1ccc(F)cc1)N1CCN(C(=S)NC2CCCC2)CC1",
    "LABEL": "inactive"
  },
  {
    "MOLECULE": "O=C(O)CCCC(=O)N1N=C(c2ccco2)CC1c1ccco1 (stereo unspecified)",
    "LABEL": "inactive"
  },
  {
    "MOLECULE": "Cc1ccc(N2C(=O)CN=C2Nc2nc(C)cc(C)n2)cc1",
    "LABEL": "inactive"
  },
  {
    "MOLECULE": "COc1ccc(/C=C(\\NC(=O)c2ccc(OCC(C)C)cc2)C(=O)OCc2ccco2)cc1",
    "LABEL": "active"
  },
  {
    "MOLECULE": "COc1ccc(/C=C(/NC(=O)c2ccco2)C(=O)Nc2ccc(C(C)=O)cc2)cc1",
    "LABEL": "inactive"
  },
  {
    "MOLECULE": "O=C1CC(c2c(F)cccc2Cl)C(n2cncn2)C(O)=C1C1NCCc2ccccc21 (stereo unspecified)",
    "LABEL": "inactive"
  },
  {
    "MOLECULE": "C=CS(=O)c1sc(Cl)c(N2CCOCC2)c1[N+](=O)[O-] (stereo unspecified)",
    "LABEL": "active"
  },
  {
    "MOLECULE": "Cn1cc(CCC(=O)NC2CC2)c2ccccc21",
    "LABEL": "inactive"
  }
]

----------
# MEASUREMENT_DESCRIPTION: qHTS for Inhibitors of human tyrosyl-DNA phosphodiesterase 1 (TDP1): qHTS in cells in absence of CPT; note: nearly all actives have a fitted effect of over 55% in size
# RUN_PARAMETERS: DT40 Tdp1-/- hTDP1 cells, no CPT, ATP luminescence, 48 h
# Procedure: Human tyrosyl-DNA phosphodiesterase 1 (TDP1) is a novel repair gene, and we propose to use it as a new target for anticancer drug development. […] For the primary screen, Tdp1-/-;hTDP1 cells will be exposed to small molecules in the presence or absence of CPT, and their growth kinetics will be evaluated after 48 hours by measuring ATP activity. […] The hit compounds will then be evaluated in the presence or absence of CPT using Tdp1-/- cells. […]
About 64,000 (15%) of roughly 420,000 compounds were called active. About 27% were inconclusive and are not listed. Calls follow the shape of the dose curve; as a rule, active = well fitted inhibition curve with a large enough effect; inconclusive = small, poorly fitted or top-dose-only effect; inactive = flat fitted curve, though single readings scatter. Only a sample is shown.
Classes used: active, inactive

[
  {
    "SMILES_NOTATION": "CN(C)c1ccc(C=Nc2ccc(/C=C/c3ccnc4ccccc34)cc2)cc1",
    "LABEL": "active"
  },
  {
    "SMILES_NOTATION": "CC(=O)Nc1ccc(C(=O)Nc2cc(S(=O)(=O)N3CCOCC3)ccc2N2CCOCC2)cc1",
    "LABEL": "inactive"
  },
  {
    "SMILES_NOTATION": "CC(=O)Nc1ccc(NC(=O)COc2ncnc3ccccc23)cc1",
    "LABEL": "inactive"
  },
  {
    "SMILES_NOTATION": "O=C(/C=C/c1ccc(Cl)cc1)Nc1ccc(S(=O)(=O)Nc2ncccn2)cc1",
    "LABEL": "inactive"
  },
  {
    "SMILES_NOTATION": "NC(=O)Nc1ccc(/C=C/c2ccnc3ccccc23)cc1",
    "LABEL": "active"
  }
]
